Give measured MIC for each item. Keep answers brief.
# Test system: Staph. aureus MS353C36
# experiment-description: minimum inhibitory concentration (MIC), Staph. aureus MS353C36*
# Format: cell-based
# setup-conditions: Staphylococcus aureus, macrolide-antibiotics resistant
Give bare numbers, in µg/mL.

| compound | numeric-result |
| --- | --- |
| CCC1CC=C(C)C=CC(=O)C(C)CC(CC=O)C(OC2OC(C)CC(N(C)C)C2O)C(C)C(O)CC(=O)O1 (centres unmarked) | 0.2 |
| CCC1OC(=O)CC(O)C(C)C(OC2OC(C)CC(N(C)C)C2OC(C)=O)C(CC=O)CC(C)C(=O)C=CC(C)=CC1CO (centres unmarked) | 0.2 |
| CCC1OC(=O)CC(O)C(C)C(OC2OC(C)CC(N(C)C)C2OC(C)=O)C(CC(OC)OC)CC(C)C(=O)C=CC(C)=CC1CO (centres unmarked) | 0.1 |

Looking up CCC1OC(=O)CC(O)C(C)C(OC2OC(C)C(O)C(N(C)C)C2O)C(CC=O)CC(C)C(=O)C=CC(C)=CC1C(=O)OC(C)C (centres unmarked) , I see its MIC listed as 0.8

====

# System: Staph. aureus MS353C36
# experiment-description: minimum inhibitory concentration (MIC), Staph. aureus MS353C36*
# Format: cell-based
# setup-conditions: Staphylococcus aureus, macrolide-antibiotics resistant
Assign MIC to each entry below.

| compound | MIC |
| --- | --- |
| CCOC(=O)C1C=C(C)C=CC(=O)C(C)CC(CC=O)C(OC2OC(C)C(O)C(N(C)C)C2O)C(C)C(O)CC(=O)OC1CC (stereo not drawn) | 0.4 µg/mL |

Provide reported MIC for each item, in the same order as listed.
1. CC[C@H]1OC(=O)[C@H](C)[C@@H](O[C@H]2C[C@@](C)(OC)[C@@H](O)[C@H](C)O2)[C@H](C)[C@@H](O[C@@H]2O[C@H](C)C[C@H](N(C)C)[C@H]2O)[C@](C)(O)C[C@@H](C)C(=O)[C@H](C)[C@@H](O)[C@]1(C)O [EM, erythromycin, reference compound]
2. CC[C@H]1OC(=O)C[C@@H](O)[C@H](C)[C@@H](O[C@@H]2O[C@H](C)[C@@H](O[C@H]3C[C@@](C)(O)[C@@H](O)[C@H](C)O3)[C@H](N(C)C)[C@H]2O)[C@@H](CC=O)C[C@@H](C)C(=O)/C=C/C(C)=C/[C@@H]1CO[C@@H]1O[C@H](C)[C@@H](O)[C@@H](OC)[C@H]1OC [TS, tylosin, reference compound]

1: > 100 µg/mL; 2: > 100 µg/mL
